reported conditions: human gut metagenome, 24 h, 2 µM; further: call rule not given here
recorded endpoint: Bacterial Biotransformation

Example cases with answers are listed next.
>  <molecule>
COc1ccc(/C=C/C(=O)Nc2ccccc2C(=O)O)cc1OC

>  <Bacterial Biotransformation>
Compound NOT metabolized

$$$$
>  <molecule>
Br.CN1CCC[C@@H]1Cc1c[nH]c2ccc(CCS(=O)(=O)c3ccccc3)cc12 [ELETRIPTAN HYDROBROMIDE]

>  <Bacterial Biotransformation>
Compound NOT metabolized

$$$$
>  <molecule>
O=C(O)c1cc(/N=N/c2ccc(S(=O)(=O)Nc3ccccn3)cc2)ccc1O

>  <Bacterial Biotransformation>
Compound metabolized

$$$$
>  <molecule>
CC(C)[C@H]1CC[C@H](C(=O)N[C@H](Cc2ccccc2)C(=O)O)CC1 [NATEGLINIDE]

>  <Bacterial Biotransformation>
Compound metabolized

$$$$
>  <molecule>
C#C[C@]1(OC(C)=O)CC[C@H]2[C@@H]3CCC4=C/C(=N/O)CC[C@@H]4[C@H]3CC[C@@]21CC [NORGESTIMATE]

>  <Bacterial Biotransformation>
Compound metabolized

$$$$

Request: Field request: Bacterial Biotransformation | item: Cc1cc(C)cc(OCC2CNC(=O)O2)c1 (centres undefined)
Result: Compound metabolized

Request: Field request: Bacterial Biotransformation | item: `C[C@@H](c1ncncc1F)[C@](O)(Cn1cncn1)c1ccc(F)cc1F`
Result: Compound metabolized

Request: Field request: Bacterial Biotransformation | item: `CCCN(CCC)CCc1cccc2c1CC(=O)N2`
Result: Compound NOT metabolized

Request: Field request: Bacterial Biotransformation | item: C#C[C@]1(OC(C)=O)CC[C@H]2[C@@H]3CCC4=C[C@@H](OC(C)=O)CC[C@@H]4[C@H]3CC[C@@]21C [ETHYNODIOL DIACETATE]
Result: Compound metabolized

###

reported conditions: human gut metagenome, 24 h, 2 µM
recorded endpoint: Bacterial Biotransformation

Example cases with answers are listed next.
>  <molecule>
CN(C)CCC=C1c2ccccc2COc2ccccc21 [DOXEPIN]

>  <Bacterial Biotransformation>
Compound NOT metabolized

$$$$
>  <molecule>
CC1Cc2ccccc2N1NC(=O)c1ccc(Cl)c(S(N)(=O)=O)c1 (centres undefined) [INDAPAMIDE]

>  <Bacterial Biotransformation>
Compound NOT metabolized

$$$$
>  <molecule>
CNNCc1ccc(C(=O)NC(C)C)cc1 [PROCARBAZINE]

>  <Bacterial Biotransformation>
Compound metabolized

$$$$
>  <molecule>
COC(=O)C(c1ccccc1)C1CCCCN1 (centres undefined) [METHYLPHENIDATE]

>  <Bacterial Biotransformation>
Compound metabolized

$$$$
>  <molecule>
Nc1nc(N)nc(-c2cc(Cl)ccc2Cl)n1.O=C(O)/C=C\C(=O)O [IRSOGLADINE MALEATE]

>  <Bacterial Biotransformation>
Compound NOT metabolized

$$$$

Request: Field request: Bacterial Biotransformation | item: O=C1C(CC[S+]([O-])c2ccccc2)C(=O)N(c2ccccc2)N1c1ccccc1 (centres undefined) [SULFINPYRAZONE]
Result: Compound metabolized

Request: Field request: Bacterial Biotransformation | item: COc1ccc2c(c1)c(CC(=O)O)c(C)n2C(=O)c1ccc(Cl)cc1 [INDOMETHACIN]
Result: Compound metabolized

Request: Field request: Bacterial Biotransformation | item: N=C(N)NC(=O)Cc1c(Cl)cccc1Cl [GUANFACINE]
Result: Compound NOT metabolized

Request: Field request: Bacterial Biotransformation | item: N#Cc1ccc2[nH]cc(CCCCN3CCN(c4ccc5oc(C(N)=O)cc5c4)CC3)c2c1 [VILAZODONE]
Result: Compound metabolized

Values from ChEMBL document CHEMBL5724914
